Just for reference, PubChem BioAssay AID1159580 is where these values come from.

Experiment: chemical genetic growth profiling, strain panel (AID 1159580);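 further: tested at 20 µM; growth read once vehicle control cultures reached saturation at 30 °C; 1 = growth at the plate median or of vehicle wells; lower values mean less growth of the strain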
Conditions: S. cerevisiae deletion strains, growth OD, locus YMR307W, strain GAS1, active compounds read low
Out of some 5,500 compounds screened, about 2,000 (36%) were called active. Roughly 18% stayed inconclusive and do not appear here. The list shows a part of the results.
outcomeMeasure: normalized growth
Answer with the value's number alone.

Past entries and their recorded results:
molecule	normalized growth
COC(=O)/C=C/C(C)=C/C=C/C(C)=C/C=C/C=C(C)/C=C/C=C(C)/C=C/C(=O)O	1.04
COc1cc2nc(N(C)CCCNC(=O)C3CCCO3)nc(N)c2cc1OC (stereo not given)	1.02
Oc1cc(O)c2c(c1)O[C@H](c1ccc(O)c(O)c1)[C@@H](O)C2	1.01
COc1ccc(C2CNC(=O)C2)cc1OC1CCCC1 (stereo not given)	1.03
CCOC(=O)N=Nc1c(O)[nH]c2ccc(F)cc12	0.933
COc1ccc(OC)c(C(O)CNC(=O)CN)c1 (stereo not given)	1.05

Q: Tell me the measured normalized growth of CC[N+](CC)(CC)CC , please.
Ans: 0.991

Q: Tell me the measured normalized growth of C[C@H](Cc1ccccc1)Nc1ncnc2c1ncn2[C@@H]1O[C@H](CO)[C@H](O)C1O (stereo not given in full) , please.
Ans: 1

Q: Tell me the measured normalized growth of O=C1NCC2(CCN(CCc3ccccc3)CC2)O1 , please.
Ans: 0.884

Q: Tell me the measured normalized growth of O=C(O[C@@H]1Cc2c(O)cc(O)cc2O[C@@H]1c1ccc(O)c(O)c1)c1cc(O)c(O)c(O)c1 , please.
Ans: 0.606

Q: Tell me the measured normalized growth of Fc1ccc(C(OCCN2CCN(CCCc3ccccc3)CC2)c2ccc(F)cc2)cc1 , please.
Ans: 0.891

Q: Tell me the measured normalized growth of Oc1cc(O)c2c(c1)OC(c1cc(O)c(O)c(O)c1)C(O)C2c1c(O)cc(O)c2c1OC(c1cc(O)c(O)c(O)c1)C(O)C2c1c(O)cc(O)c2c1OC(c1cc(O)c(O)c(O)c1)C(O)C2 (stereo not given) , please.
Ans: 0.928

---

Assay: chemical genetic growth profiling, strain panel (AID 1159580);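 further: tested at 20 µM; growth read once vehicle control cultures reached saturation at 30 °C; 1 = growth at the plate median or of vehicle wells; lower values mean less growth of the strain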
Settings: S. cerevisiae deletion strains, growth OD, locus YNL175C, strain NOP13, active compounds read low
Out of some 5,500 compounds screened, about 2,000 (36%) were called active. About 18% were inconclusive and are not listed. The list shows a part of the results.
Rule: normalized growth below 1 gives Y. Equal to or above 1 gives N.

            smilesinput  classname
0  COc1cc(CC(=O)O)ccc1O          Y

Shifting focus to the compound that follows.
Q: Take the compound CC(=O)c1c(O)c(C)c(O)c(Cc2c(O)c3c(c(C(=O)/C=C/c4ccccc4)c2O)OC(C)(C)C=C3)c1O and say whether its normalized growth is less than 1.
Ans: N

---

Reported normalized growth values for the following compounds.
Experiment: chemical genetic growth profiling, strain panel (AID 1159580);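 further: tested at 20 µM; growth read once vehicle control cultures reached saturation at 30 °C; 1 = growth at the plate median or of vehicle wells; lower values mean less growth of the strain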
Conditions: S. cerevisiae deletion strains, growth OD, locus YDR101C, strain arx1, active compounds read low
About 2,000 (36%) of roughly 5,500 compounds were called active. Roughly 18% stayed inconclusive and do not appear here. The list shows a part of the results.
Answer with the value's number alone.

Past entries and their recorded results:
In [3]: df
Out[3]:
                                   compound     outcomemeasure  valuemeasured
0  CC[C@@]1(O)C[C@H](O[C@H]2C[C@H](N(C)C)[C@H](O)[C@H](C)O2)c2c(cc3c(c2O)C(=O)c2c(O)ccc(O)c2C3=O)[C@H]1C(=O)OC  normalized growth           0.18
1  CC[C@@]1(O)C[C@H](O)c2c(cc3c(c2O)C(=O)c2c(O)ccc(O)c2C3=O)[C@H]1C(=O)OC  normalized growth          0.848

Q: Tell me the measured normalized growth of OCC(O)CN1CCN(c2ccccc2)CC1 (stereo not drawn) , please.
Ans: 0.965
